Give IC50 for every item shown.
test-protocol: microbe, parasite or virus in culture
experimental-context: Mycobacterium tuberculosis, 72 h, read-out: pIC50 (converted)
Numbers only, in µM.

compound: N[C@@H]1CCN(Cc2cc(F)cc(C(F)(F)F)c2)C[C@H]1O
IC50 (µM): 266

compound: COC1CCN(C(=O)Cc2ccc(N(C)C)cc2)C1 (configuration not stated)
IC50 (µM): 183

compound: O=C(NCC(O)c1ccc(Cl)cc1)Nc1ccccn1 (configuration not stated)
IC50 (µM): 106

compound: COCCCNC(=O)c1ccn(-c2ccc(F)cc2)n1
IC50 (µM): 114

compound: CN(Cc1ccc(Br)s1)CC(O)COCCO (configuration not stated)
IC50 (µM): 236

compound: Fc1ccccc1CN1CCC[C@H](Cn2nnc(-c3cccs3)n2)C1
IC50 (µM): 12.9

Entry under review: Cc1cc(Br)oc1C(=O)N1CCCN(C)CC1 . Reported IC50?
248

====

Give IC50 for every item shown.
test-protocol: microbe, parasite or virus in culture
experimental-context: Mycobacterium tuberculosis, 72 h, read-out: pIC50 (converted)

Consider the worked cases shown below.
compound: Cc1nc(-c2nnc[nH]2)sc1C(=O)N1CCCC1Cn1cccn1 (stereo unspecified)
result: > 50.1 µM

compound: CC(C)N(Cc1ccccn1)C(=O)c1cc(Cl)c[nH]1
result: > 501 µM

compound: CCc1noc(CNc2cc3c(cc2Cl)OCCCO3)n1
result: > 50.1 µM

compound: CC(C)c1cc(N)[nH]n1
result: > 501 µM

compound: NCc1noc2c1CCCC2
result: > 501 µM

Moving on to another compound below.
Entry under review: Cc1[nH]c(=O)[nH]c(=O)c1CN1CCCC(CCc2ccc(F)cc2F)C1 (stereo unspecified) . Reported IC50?
> 50.1 µM

====

Give IC50 for every item shown.
test-protocol: microbe, parasite or virus in culture
experimental-context: Mycobacterium tuberculosis, 96 h, read-out: pIC50 (converted)

Consider the worked cases shown below.
molecule: CC(C)N(CCS(=O)(=O)c1ccccc1)CC(N)=O
IC50: > 501 µM
//
molecule: OC1CCN(Cc2cc(Cl)c3c(c2)OCCO3)CC1
IC50: > 501 µM
//
molecule: O=C(NC[C@H]1CC[C@H](c2ccnc3ncnn32)CC1)C1CC1
IC50: > 50.1 µM

Give IC50 for all molecules that follow.
1. O=C(NC1CCCC1)N1CCCC(c2nccn2Cc2ccncc2)C1 (stereo unspecified)
2. CCC(O)CN1CCN(c2ncccc2Br)CC1 (stereo unspecified)
3. CCc1ccc(C(=O)NC(C)c2cccnc2)o1 (stereo unspecified)
4. CC(C)C(C)N(C)Cc1nnc(-c2ccco2)o1 (stereo unspecified)
5. CN(C)S(=O)(=O)c1ccc(CN2CCC(C(N)=O)CC2)o1

["> 50.1 µM", "> 501 µM", "> 501 µM", "> 50.1 µM", "> 50.1 µM"]

Give IC50 for all molecules that follow.
1. Cc1ccc(C(C)NC(=O)Nc2nccn(C)c2=O)o1 (stereo unspecified)
2. COc1ccc(C(=O)N(C)CCn2cccn2)cc1

["> 501 µM", "> 501 µM"]

Give IC50 for all molecules that follow.
1. CC(CCc1ccco1)NC(=O)Nc1cc(C(F)(F)F)c[nH]c1=O (stereo unspecified)
2. O=C(CCc1ccccc1)N1CC(c2cccnc2)C1
3. NCc1cnn(-c2cccc(Cl)c2)c1
4. O=C(COCC(F)(F)F)NCc1cn2ccccc2n1
5. CCCn1nc(C(=O)NCc2csc(Br)c2)ccc1=O
6. CCC1c2ccsc2CCN1C(=O)c1ccc(CN)o1 (stereo unspecified)

1. 43.3 µM
2. 25.3 µM
3. 260 µM
4. > 501 µM
5. 154 µM
6. 370 µM
